As shown below, each of these compounds has a reported TGI value.
# Test system: NCI-H460 lung
# assay.name: NCI tumour cell line growth inhibition, 48 h

compound	TGI
CC1OC(OC2C(O[C@H]3CC[C@@]4(C)C(=CC[C@H]5[C@@H]6C[C@@H]7O[C@]8(CC[C@H](C)CN8)[C@@H](C)[C@@H]7[C@@]6(C)CC[C@@H]54)C3)OC(CO)C(O)C2OC2OC(CO)C(O)C(O)C2O)C(O)C(O)C1O (some centres not stated)	31.6 µM
Cc1cc(Cl)ccc1NC(=O)c1cc2ccccc2cc1O	> 100 µM
C=C1CCC2C(C)(C)CCC[C@]2(C)[C@H]1CO (some centres not stated)	> 100 µM
COC(=O)C1=C(C)NC(C)=C(C(=O)OC)C1/C=C(Cl)/C=C/c1ccccc1	45.4 µM
O=C(CCC(=O)C(C(=O)c1ccccc1)c1ccccc1)Nc1cccc(C(F)(F)F)c1 (configuration not stated)	> 100 µM
N#CCCN(CCC#N)c1ccc(/C=C2\N=C(c3ccccc3)N(NC(N)=S)C2=O)cc1	> 100 µM
CCn1cc(C(=O)O)c(=O)c2cc3c(cc21)S(=O)(=O)CC3	> 100 µM
O=C1CCCC/C1=C\c1ccc(Br)cc1	98.2 µM
COC1(OC)CC(CO)(CNc2cc(Cl)nc(N)n2)C1	> 100 µM
CSc1ccc(NC(=S)NN(C)C)cc1	> 10 µM
O=C(O)c1cn2c3c(cc(N4CCN(CCO)CC4)cc3c1=O)SCC2	> 100 µM
CCC(=O)c1c(NOC2OC(COC(C)=O)C(OC(C)=O)C(OC(C)=O)C2OC(C)=O)nc(OC)n(C)c1=O (configuration not stated)	> 100 µM
